Reported concentration at 8 h values for a set of molecules
Test: Plasma pharmacokinetics and total colon tissue distribution in mice, single oral administration
Assay type: in vivo, mouse (male C57BL/6)
Conditions: male, C57BL/6, mouse, total colon, 5 mg/kg, read-out: Median total colon concentration
Measure name: concentration at 8 h (ng/g)

- COc1c(NC(=O)Nc2ccc(Oc3ccnc(Nc4ccccc4)c3)c3ccccc23)cc(C(C)(C)C)cc1C(=O)NC1COC1: 350
- COCCOCCOCCNC(=O)c1cc(Nc2cc(Oc3ccc(NC(=O)Nc4cc(C(C)(C)C)cc(NS(C)(=O)=O)c4OC)c4ccccc34)ccn2)cc(OC)c1: 278

----------
pIC50: −log10 of the molar value.
Recorded pIC50 values (c-Src (Homo sapiens (Human))) are given below.
Measure name: pIC50

• COCCOCCOCCOc1cc(Nc2nccc(Oc3ccc(NC(=O)Nc4cc(C(C)(C)C)cc(-c5cnn[nH]5)c4OC)c4ccccc34)n2)cc(OC)c1 = 7.17
• COCCOCCOCCOc1cc(Nc2nccc(Oc3ccc(NC(=O)Nc4cc(C(C)(C)C)cc(C(=O)NCCO)c4OC)c4ccccc34)n2)cc(OC)c1 = 7.89
• C#Cc1cc(Nc2cc(Oc3ccc(NC(=O)Nc4cc(C(C)(C)C)cc(NS(C)(=O)=O)c4OC)c4ccccc34)ccn2)cc(C(=O)NCCOCCOCCOC)c1 = 7.38
• COc1cc(Nc2cc(Oc3ccc(NC(=O)Nc4cc(C(C)(C)C)cc(NS(C)(=O)=O)c4OC)c4ccccc34)ccn2)cc(C(=O)NCCCN2CCOCC2)c1 = 7.64
• C#Cc1cc(Nc2cc(Oc3ccc(NC(=O)Nc4cc(C(C)(C)C)cc(C(=O)NC)c4OC)c4ccccc34)ccn2)cc(C(=O)NCCN2CCOCC2)c1 = 7.54
• COc1cc(CO)cc(Nc2cc(Oc3ccc(NC(=O)Nc4cc(C(C)(C)C)cc(C(N)=O)c4OC)c4ccccc34)ccn2)c1 = 7.55
• C#Cc1cc(Nc2cc(Oc3ccc(NC(=O)Nc4cc(C(C)(C)C)cc(NS(C)(=O)=O)c4OC)c4ccccc34)ccn2)cc(C(=O)NCCOCCOC)c1 = 7.00
• COCCOCCOCCNC(=O)c1cc(Nc2nccc(Oc3ccc(NC(=O)Nc4cc(C(C)(C)C)cc(NS(C)(=O)=O)c4OC)c4ccccc34)n2)cc(OC)c1 = 8.05
• COCCOCCOCCOc1cc(Nc2nccc(Oc3ccc(NC(=O)Nc4cc(C(C)(C)C)cc(NS(=O)(=O)N5CCOCC5)c4OC)c4ccccc34)n2)cc(OC)c1 = 7.32
• COCCOCCOc1cc(Nc2nccc(Oc3ccc(NC(=O)Nc4cc(C(C)(C)C)cc(NS(C)(=O)=O)c4OC)c4ccccc34)n2)cc(OC)c1 = 7.80
• COCCOCCOCCOCCOCCOCCOCCOc1cc(Nc2cc(Oc3ccc(NC(=O)Nc4cc(C(C)(C)C)cc(NS(C)(=O)=O)c4OC)c4ccccc34)ccn2)cc(OC)c1 = 7.41
• COCCOCCOCCOc1cc(Nc2nccc(Oc3ccc(NC(=O)Nc4cc(C(C)(C)C)cc(C(=O)NC5COC5)c4OC)c4ccccc34)n2)cc(OC)c1 = 7.82

----------
Assay: Plasma pharmacokinetics in rats, single intravenous or oral administration
Assay type: in vivo, rat (male Wistar)
Conditions: male, Wistar, rat, plasma, po, 5 mg/kg; read-out: Median plasma concentration
Measure name: concentration at 8 h (ng/mL)

• COc1c(NC(=O)Nc2ccc(Oc3ccnc(Nc4ccccc4)c3)c3ccccc23)cc(C(C)(C)C)cc1C(=O)NC1COC1 [Example 75] = 3.2

This collection of values is drawn from patent US9481648B2.
